System: MOLT-4 leukemia
assay: NCI tumour cell line growth inhibition, 48 h
outcomeMeasure: TGI (µM)
Unit µM implied. Number only.

>>> print(df.to_string())
                                   molecule  systemundertest  outcomemeasure  reportedvalue
0  O=C(CC(=O)Nc1ccccc1Cl)NNC(Sc1ccccc1)c1cc(N=Nc2ccc(Br)cc2)ccc1O (stereo not drawn)  MOLT-4 leukemia             TGI           1.75

We next turn to a different molecule, shown below.
IN: GET /values?readout=TGI&item= COc1ccc(/C=C/C(C(=O)O)C(=O)O)cc1
OUT: 84.8

---

System: LOX IMVI melanoma
assay: NCI tumour cell line growth inhibition, 48 h
outcomeMeasure: TGI (µM)
Response body: numeric value in µM, unit text excluded.

>>> df
                                   compound  reportedvalue
0                     C=CCNC(=S)OCCCCCCCCCC           26.9
1          Clc1ccc(Nc2nc3ccccc3c3occc23)cc1           14.3
2  OC(C(=Nc1ccccc1)c1ccccc1)c1ccccc1 (configuration not stated)           38.2

IN: Query (compound): CC(C)(CCC(C)(C)c1ccccc1)c1ccccc1 ; field requested: TGI
OUT: 32

---

System: MALME-3M melanoma
assay: NCI tumour cell line growth inhibition, 48 h
Recorded TGI, one value per entry.

molecule	systemUnderTest	TGI
c1cn[nH]c1	MALME-3M melanoma	> 10 µM
Cc1nn(C)c(=S)n(C)c1=O	MALME-3M melanoma	37.2 µM
CCOC(=O)C1(C(=O)OCC)CC=C(C)CC12C(=O)Nc1ccccc12 (centres undefined)	MALME-3M melanoma	> 100 µM
NCC(=O)CCC(=O)O	MALME-3M melanoma	> 100 µM
c1ccc2nn(C3CCCCO3)nc2c1 (centres undefined)	MALME-3M melanoma	> 100 µM
C/C(=N\NC(=O)N/N=C(\C)c1ccccn1)c1ccccn1	MALME-3M melanoma	> 100 µM
CC(C)(C)C(=O)OCC(COC(=O)C(C)(C)C)[N+](=O)[O-]	MALME-3M melanoma	> 100 µM
C#CC#CC#CC#CC#CC#CC#CC#CCC1OC[C@H](COC(=O)O[C@@H](C(=O)O[C@H]2C[C@@]3(O)[C@@H](OC(=O)c4ccccc4)[C@@H]4[C@]5(OC(C)=O)CO[C@@H]5C[C@H](O)[C@@]4(C)C(=O)[C@H](OC(C)=O)C(=C2C)C3(C)C)[C@@H](NC(=O)c2ccccc2)c2ccccc2)O1 (some centres undefined)	MALME-3M melanoma	> 33.3 µM

Turning now to a further record.
IN: Look at this molecule and give its reported TGI. Cc1ccc(Nc2ccc(Nc3ccc(C)cc3S(=O)(=O)O)c3c2C(=O)c2ccccc2C3=O)c(S(=O)(=O)O)c1
OUT: > 100 µM

---

Test system: UACC-257 melanoma
assay: NCI tumour cell line growth inhibition, 48 h
In this section we review reported GI50 values for a set of compounds.

                                   compound    systemundertest  outcomemeasure  reportedvalue
0  Cc1[nH]nc(C(=O)Nc2n[nH]c3ccccc23)c1[N+](=O)[O-]  UACC-257 melanoma            GI50       > 100 µM
1  COc1cc(/C=C/C(=O)c2cc(OC)c(OC)c(OC)c2)cc(OC)c1OC  UACC-257 melanoma            GI50        4.35 µM
2  CN1c2ccccc2C(C)(C)C12CC(c1ccc(Cl)c(S(=O)(=O)N3CCCC3)c1)=NO2 (centres undefined)  UACC-257 melanoma            GI50       > 100 µM

Now, please, on to the next compound.
IN: For the compound shown here, CC(=O)OC1=C2C(CC3C4CC=C5CC(OC(C)=O)CCC5(C)C4CCC23C)C2C(=O)N(Cc3ccccc3)C(=O)C2C1 (centres undefined) , give the reported GI50.
OUT: 10.9 µM

---

The reader will find reported TGI values listed item by item below.
Test system: HS 578T breast
assay: NCI tumour cell line growth inhibition, 48 h

Solved cases (3 shown):
compound	outcomeMeasure	reportedValue
CC1CN=C(N(C)C(=O)Nc2ccc(Cl)c(Cl)c2)S1 (stereo unspecified)	TGI	> 100 µM
COc1cc(C2c3cc4c(cc3OC(N3CCOCC3)C2C)OCO4)cc(OC)c1OC(C)=O (stereo unspecified)	TGI	25.7 µM
C=C1[C@H](OCC(C)C)[C@@H](OC(=O)C(C)CC)[C@@H](O)C(C)(C)/C=C/[C@H](C)C(=O)[C@@]2(O)C[C@H](C)[C@H](O)[C@@H]2[C@H]1OC(=O)C(C)CC (stereo partly specified)	TGI	10.6 µM

IN: Bench note: what TGI did CC(C)(C)OC(=O)N1C/C=C\C(=O)C2(OCCO2)c2ccccc21 show?
OUT: > 100 µM

IN: // lookup TGI for COc1cc(-c2coc3c(OC)c(OC4OC(COC5OC(C)C(O)C(O)C5O)C(O)C(O)C4O)c(OC)c(O)c3c2=O)cc(C)c1O (stereo unspecified)
OUT: 62.1 µM

IN: Can you look up the measured TGI of CCCC1C(C#N)(C#N)C(C#N)=C(N)C1(C)C(C)=O (stereo unspecified) for me?
OUT: > 100 µM

IN: Fill in: TGI of COc1ccc2c(c1)C(=O)c1c-2n(CCCCl)c(=O)c2cc(N(C)C)ccc12 is ___
OUT: > 100 µM

IN: Can you share its TGI? I mean this compound: COc1cc(C2C3=C(N=C4SC(C(C)=O)=C(C)N42)c2ccccc2CC3)cc(OC)c1OC (stereo unspecified)
OUT: > 100 µM

IN: Fill in the blank: the reported TGI of C=C1C(=O)O[C@H]2[C@H]1CC/C(COC(=O)C(=O)c1cn(C)c3ccc(OC)cc13)=C\CC[C@@]1(C)O[C@@H]21 is ____.
OUT: 50.4 µM

IN: # query: TGI of entry CN(C)/C=N/S(=O)(=O)c1nn2c(C=O)c(-c3cc4ccccc4oc3=O)nc2s1
OUT: > 27 µM

IN: Which TGI value belongs to CC(C)(C)c1nnc2n(c1=O)N=CC(c1ccc(Br)cc1)S2 (stereo unspecified) ?
OUT: 91.1 µM

IN: I would be grateful if you could share the reported TGI for O=C(NC(CO)CO)c1ccc2cc(C(=O)N3CC(CCl)c4ccc([N+](=O)[O-])cc43)[nH]c2c1 (stereo unspecified) .
OUT: > 100 µM

IN: Consider the compound Cc1ccnc2sc3ccccc3c(=O)c12 and give its measured TGI.
OUT: 77.6 µM

IN: Fill in the blank: the reported TGI of CC(=O)OC1=C2C(CC3C4CC=C5CC(OC(C)=O)CCC5(C)C4CCC23C)C2C(=O)N(Cc3ccccc3)C(=O)C2C1 (stereo unspecified) is ____.
OUT: > 100 µM

IN: Requested field: TGI. Item: O=[N+]([O-])c1cc(Cl)ccc1S(=O)(=O)c1cc(Cl)cc2c1NCCC2
OUT: > 100 µM

IN: Fill in the blank: the reported TGI of C/C(=N\NC(=O)N/N=C(\C)c1ccccn1)c1ccccn1 is ____.
OUT: > 100 µM

IN: TGI lookup needed for CC(C)(CN1CCCCC1)C(=O)/C=C/c1c(Cl)cccc1Cl , thanks.
OUT: 8.8 µM

IN: Consider the compound shown here: S=C1CSc2c(cnc3ccccc23)N1 What is its recorded TGI?
OUT: > 100 µM

IN: I'd like to know its TGI. The compound in question is Nc1ccc(-c2nc3cc(F)ccc3s2)cc1
OUT: > 100 µM

IN: Name the recorded TGI for C/C(=N\n1c(Cc2ccccc2)n[nH]c1=O)c1ccc([N+](=O)[O-])cc1 .
OUT: > 100 µM

IN: # lookup: TGI of CCCCc1nc2cc(/C=C/C(=O)NO)ccc2n1CCN(CC)CC
OUT: 33 µM

IN: Fill in the blank: the reported TGI of Clc1ccc(-c2nn3c(C45CC6CC(CC(C6)C4)C5)nnc3s2)cc1 is ____.
OUT: > 100 µM

IN: Which value of TGI has been reported for CC(C)(C)c1cc(C2NC(=O)NC2=O)cc(C(C)(C)C)c1O (stereo unspecified) in the records?
OUT: 69.8 µM

IN: Can you look up the measured TGI of CC(=O)C(C(=O)C(C)(C)C)C(=O)C(C)(C)C for me?
OUT: > 100 µM

IN: Name the reported TGI value associated with the compound COc1cccc2c1C(=O)c1c(O)c3c(c(O)c1C2=O)C[C@@](O)(/C(C)=N\O)C[C@@H]3OC1CC(N)C(O)C(C)O1 (stereo partly specified)
OUT: 6.58 µM

IN: Consider the compound Cc1nc2ccccc2cc1C[N+]12CN3CN(CN(C3)C1)C2 and give its measured TGI.
OUT: > 100 µM

FYI, the data here is from PubChem BioAssay (NCI).
